Documented IC50 across a set of compounds
tested on: NCI-H358 (K-Ras G12C); test: CellTiter-Glo cell viability assay, NCI-H358; format: cell-based, human; settings: Homo sapiens, NCI-H358, 120 h, read-out: H358 Cell Viability assay data (K-Ras G12C, IC50, uM), 5-day treatment

{"columns": ["Compound string", "IC50"],
 "data": [
  ["C=CC(=O)N1CC[C@H](C(=O)N(C)[C@H](C(=O)N[C@H]2Cc3cc(O)cc(c3)-c3ccc4c(c3)c(c(-c3ccc(CN(C)C)nc3)n4CC)CC(C)(C)COC(=O)[C@@H]3CCCN(N3)C2=O)C(C)C)C1", "0.1 to 1 µM"],
  ["C=CC(=O)N1CC[C@H](C(=O)N(C)[C@H](C(=O)N[C@H]2Cc3cc(O)cc(c3)-c3ccc4c(c3)c(c(-c3ncccc3[C@H](C)OC)n4CC)CC(C)(C)COC(=O)[C@@H]3CCCN(N3)C2=O)C(C)C)C1", "0.01 to 0.1 µM"]
]}
